Target: adenosine-2 (A-2) receptor (Rattus norvegicus, UniProt P30543)
Construct: striatal membrane preparations from corpus striatum of male Sprague-Dawley rats
Sequence (P30543 whole entry): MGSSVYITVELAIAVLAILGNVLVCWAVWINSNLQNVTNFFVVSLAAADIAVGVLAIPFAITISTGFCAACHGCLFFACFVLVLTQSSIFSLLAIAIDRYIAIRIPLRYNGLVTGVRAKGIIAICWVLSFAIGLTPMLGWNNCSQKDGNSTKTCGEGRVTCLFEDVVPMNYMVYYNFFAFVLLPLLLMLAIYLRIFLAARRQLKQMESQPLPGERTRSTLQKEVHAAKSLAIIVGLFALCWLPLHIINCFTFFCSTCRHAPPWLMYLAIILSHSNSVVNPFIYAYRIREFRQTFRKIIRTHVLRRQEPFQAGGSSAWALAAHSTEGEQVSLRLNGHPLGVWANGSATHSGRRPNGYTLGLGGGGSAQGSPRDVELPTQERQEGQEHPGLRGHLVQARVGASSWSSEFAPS
Assay: in vitro adenosine-2 (A-2) receptor binding: inhibition of specific 3H-NECA binding in rat striatal membranes
Details: 4 nM 3H-NECA, in presence of 50 nM cyclopentyladenosine
Where a name gives a salt, the structure may show the parent alone.
Quantity: IC50

Query: Which value of IC50 has been reported for CCNC(=O)[C@H]1O[C@@H](n2cnc3c(N)nc(NCCC4CCCCC4)nc32)[C@H](O)[C@@H]1O [Example 2n, hydrochloride] in the records?
Response: ~13 nM

Reference source: patent US4968697A
